Value kind: logP

Reference set, count: 3
Molecule	logP
c1ccc2c(c1)ccc1sc3ccccc3c12	5.19
Cc1cc2ccccc2s1	3.71
Cc1cccc2ccsc12	3.85

A. c1ccc2cc3sccc3cc2c1
B. O=S1C=Cc2ccccc21 (stereo not given)
// compare: A vs B , metric logP, want the smaller Provide the label of your selected option as the answer.
B
(B: 1.01, A: 4.5)

A. Cc1cccc2sccc12
B. c1ccc2c(c1)ccc1c3ccsc3ccc21
// compare: A vs B , metric logP, want the smaller Provide the label of your selected option as the answer.
A

----------
Value kind: logP

Query smiles	Result value
c1cc2ccc3cccc4sc(c1)c2c34	4.95
c1ccc2c(c1)ccc1sccc12	4.41
c1ccc2c(c1)ccc1ccsc12	4.55
